Where a name gives a salt, the structure may show the parent alone.
MEASURE: melting point

| COMPOUND | MEASURE | RECORDED RESULT |
| --- | --- | --- |
| C[C@@H]1CCCN1CCc1ccc2cc(-c3cc(F)cc(F)c3)ccc2n1 (as salt: hydrochloride) | melting point | 164 to 165 °C |
| Cc1ccc(-c2ccc3nc(CCN4CCC[C@H]4C)ccc3c2)c(C)n1 (as salt: hydrochloride) | melting point | 176 to 177 °C |
| CC(=O)c1ccc(-c2ccc3nc(CCN4CCC[C@H]4C)ccc3c2)cc1 (as salt: tartrate) | melting point | 152 to 154 °C |
| C[C@@H]1CCCN1CCc1ccc2cc(-c3cccc(C#N)c3)ccc2n1 (as salt: tartrate) | melting point | 172 °C |
| C[C@@H]1CCCN1CCc1ccc2cc(C(=O)c3cccc(F)c3)ccc2n1 (as salt: hydrochloride) | melting point | 162 to 164 °C (dec.) |
| C[C@@H]1CCCN1Cc1ccc2cc(-c3ccc(C#N)cc3)ccc2c1 (as salt: hydrochloride) | melting point | 212.6 to 213.6 °C |
| C[C@@H]1CCCN1CCc1ccc2cc(Br)ccc2c1 (as salt: HCl) | melting point | 247.3 to 250.7 °C |
| C[C@@H]1CCCN1CCc1ccc2cc(-c3ccc(F)nc3)ccc2n1 (as salt: hydrochloride) | melting point | 162 to 163 °C |
| C[C@@H]1CCCN1CCc1ccc2cc(-c3ccc(Cl)cc3)ccc2n1 (as salt: hydrochloride) | melting point | 154 to 155 °C |
